system: NCI-H460 lung; assay: NCI tumour cell line growth inhibition, 48 h
Would you kindly list TGI for each of these compounds?

Return value of TGI for input CNC(=O)CCCNC(=O)CCCC(=O)N(C)C , no commentary.
> 100 µM

Return value of TGI for input C(=N\Nc1nnn(Cc2ccccc2)n1)/c1ccccc1 , no commentary.
> 33.8 µM

Return value of TGI for input O=S(=O)(CCCl)c1ccc(Cl)cc1 , no commentary.
24 µM

Return value of TGI for input O=C1CCCCN1CCCCC#Cc1cccc(C#Cc2cccnc2)c1 , no commentary.
> 100 µM

Return value of TGI for input O=C(N[C@@H](C[Se][Se]C[C@H](NC(=O)c1ccc(Br)cc1F)C(=O)O)C(=O)O)c1ccc(Br)cc1F , no commentary.
> 100 µM

Return value of TGI for input C[C@H]1CCCC(O)C(O)[C@@H]2C[C@H](O[Si](C)(C)C(C)(C)C)C[C@H]2[C@H](O[Si](C)(C)C(C)(C)C)C(O)C(O)C(=O)O1 (some centres undefined) , no commentary.
23.9 µM

Return value of TGI for input COc1cc2ccc1OCc1cccc(n1)COc1ccc(cc1OC)C=Nc1ccc(cc1)N=C2 , no commentary.
> 100 µM

Return value of TGI for input C=CC(OCC)(OCC)OCC , no commentary.
> 100 µM

Return value of TGI for input CSC(=NCCc1c[nH]c2ccccc12)NC#N , no commentary.
> 100 µM

Return value of TGI for input CCC(=O)Nc1nc2c(ncn2C2OC(COC(=O)CC)C(OC(=O)CC)C2OC(=O)CC)c(=O)[nH]1 (centres undefined) , no commentary.
> 100 µM

Return value of TGI for input COc1cnc2c(c1)C(=O)c1c-2n(CCCN2CCN(C)CC2)c(=O)c2cc([N+](=O)[O-])ccc12 , no commentary.
0.365 µM

Return value of TGI for input C[N+](C)(C)CC1CCCCC1O (centres undefined) , no commentary.
> 100 µM

Return value of TGI for input COc1ccc(CC2COc3cc(O)cc(O)c3C2=O)cc1O (centres undefined) , no commentary.
> 100 µM

Return value of TGI for input CO[C@]12C[C@H](CNC(=O)c3ccc[nH]3)O[C@H]1NC(=O)N2 , no commentary.
> 100 µM

Return value of TGI for input COc1ccc(OC)c(Cn2cc3c(c2-c2ccccc2)CCc2cnoc2-3)c1 , no commentary.
> 100 µM

Return value of TGI for input COC(=O)/C(C#N)=C(/NCCN)Nc1ccccc1 , no commentary.
> 100 µM

Return value of TGI for input CC(=O)OCC1OC(N2C(=O)C(=O)c3ccccc32)C(OC(C)=O)C(OC(C)=O)C1OC(C)=O (centres undefined) , no commentary.
> 100 µM

Return value of TGI for input [O-]/[N+](=C\c1ccccc1OC(=S)S)c1ccc(Cl)cc1 , no commentary.
> 100 µM

Return value of TGI for input c1ccc2[nH]c(-c3ccc(Nc4nc(N5CCCCC5)nc(N5CCOCC5)n4)cc3)nc2c1 , no commentary.
6.18 µM

Return value of TGI for input C=C(CNCCc1ccc(O)cc1)[C@@H]1CC[C@]2(COC3CCCCO3)CC[C@]3(C)[C@H](CC[C@@H]4[C@@]5(C)CCC(NCCO)C(C)(C)[C@@H]5CC[C@]43C)[C@@H]12 (some centres undefined) , no commentary.
1.07 µM

Return value of TGI for input NS(=O)(=O)c1cccc(NC(=S)NC(=O)Nc2ccc(Cl)c(Cl)c2)c1 , no commentary.
44.6 µM

Return value of TGI for input O=C(/C=C/c1ccccc1)c1ccc(NCc2nc3ccccc3[nH]2)cc1 , no commentary.
12 µM

Return value of TGI for input CCNC(=O)c1noc(-c2cc(C(C)C)c(O)cc2O)c1-c1ccc(CN2CCOCC2)cc1 , no commentary.
14.6 µM

Return value of TGI for input Cc1cc(N(CCC#N)CCC#N)ccc1/C=C(\NC(=O)/C=C/c1ccccc1)C(=O)NN , no commentary.
> 100 µM
